assay: small molecules captured by biotinylated probe aFGF2 – biochemical, small-molecule microarray, fluorescence 635/667, stem cell growth factor project, primary screen (AID 1067); details: higher = more signal;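 also: measures binding of biotinylated aFGF2 protein to printed compounds on slides; z-score merges feature fluorescence and signal-to-noise across triplicate slides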
Readout Name: composite z-score
Would you mind answering with just the numeric figure?

Q. Provide measured composite z-score value, entry: C=C(COC)C(=O)CC[C@@H](OC(=O)c1ccccc1-c1ccccc1C(=O)O)c1ccc(CO)o1
A. -0.0449

Q. Answer with the recorded composite z-score for the molecule listed here: O=[N+]([O-])c1ccc(C[n+]2ccc(CCCO)cc2)o1
A. 0.0609

Q. Look up and report measured composite z-score for this entry: C[C@]1(C(=O)NCC(F)(F)F)c2ccccc2C(=O)N(Cc2cc(F)cc(C(F)(F)F)c2)[C@H]1c1ccc(CO)cc1
A. 0.274

Q. Please give measured composite z-score of the following entry: CCOC1=C2C(c3ccc(C)cc3)N(S(=O)(=O)c3ccc(C)cc3)CC2n2c(=O)n(-c3ccccc3)c(=O)n2C1 (stereo not given)
A. 0.0876

Q. Provide only the value of recorded composite z-score for CC(C)(C)OC(=O)CC[C@@]1(C(N)=O)N=C(c2ccc(OCCCO)cc2)O[C@@H]1c1ccccc1N=[N+]=[N-]
A. 0.0354

Q. Determine its reported composite z-score: C=CC[C@]1(C(=O)O)N=C(c2ccc(OCCCO)cc2)O[C@H]1c1ccccc1CN=[N+]=[N-]
A. -0.144

Q. Look up and report measured composite z-score for this entry: Cc1ccc(F)cc1S(=O)(=O)N[C@@H]1CCN(Cc2ccc(C(F)(F)F)cc2)C1
A. -0.198

Q. Supply recorded composite z-score for CCCNC(=O)[C@@]1(C)c2ccccc2C(=O)N(C(C)C)[C@H]1c1ccc(CO)cc1 here.
A. -0.0704

Q. Supply composite z-score value. Item: C/C=C/[C@H](CCn1cc([C@H](O)c2ccccc2)nn1)[Si](C)(C)c1ccc(OC)cc1
A. -0.234

Q. Please look at this molecule and report its composite z-score: COCCOC(=O)N1C(=O)[C@@]2(c3cc(C#Cc4ccc(OC)cc4)ccc31)[C@H](C(N)=O)[C@H]1C(=O)O[C@H](c3ccccc3)[C@H](c3ccccc3)N1[C@@H]2c1ccc(O)cc1
A. -0.167
